assayed target: PYL8 (with HAB1) (Arabidopsis thaliana, UniProt Q9FGM1)
Construct: PYL8 from E. coli BL21(DE3), pET-28a or pGEX-4T-2 (TEV site), IMAC and SEC; HAB1 residues 169-511, GST cut by TEV; with Protein phosphatase 2C 16
Sequence (Q9FGM1 1-188): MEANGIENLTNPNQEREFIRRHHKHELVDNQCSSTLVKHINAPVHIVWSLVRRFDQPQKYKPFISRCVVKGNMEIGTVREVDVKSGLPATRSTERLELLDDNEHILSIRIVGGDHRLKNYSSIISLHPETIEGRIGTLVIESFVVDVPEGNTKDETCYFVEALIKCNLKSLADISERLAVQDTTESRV
Sequence (Q9CAJ0 169-511 partner): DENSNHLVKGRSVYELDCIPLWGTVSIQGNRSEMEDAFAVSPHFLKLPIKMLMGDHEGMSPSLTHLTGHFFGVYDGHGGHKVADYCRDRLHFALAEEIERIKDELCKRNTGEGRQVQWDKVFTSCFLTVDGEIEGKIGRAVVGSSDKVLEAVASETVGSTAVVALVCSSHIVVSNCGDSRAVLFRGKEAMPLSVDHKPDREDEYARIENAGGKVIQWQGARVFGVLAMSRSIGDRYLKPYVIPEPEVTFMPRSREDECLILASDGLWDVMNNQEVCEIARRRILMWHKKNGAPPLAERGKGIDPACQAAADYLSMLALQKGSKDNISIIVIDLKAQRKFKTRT
assay comment: HAB1 phosphatase inhibition assay (phosphopeptide, molybdate)
parameter measured: IC50 (µM)
Numeric only. Scale: µM

In: Answer with reported IC50 of CC1=CC(=O)CC(C)(C)[C@]1(O)/C=C/C(C)=C\C(=O)O [(−)-ABA]
Out: 1.6

----------
assayed target: PYL4 (with HAB1) (Arabidopsis thaliana, UniProt O80920)
Construct: PYL4 from E. coli BL21(DE3), pET-28a or pGEX-4T-2 (TEV site), IMAC and SEC; HAB1 residues 169-511, GST cut by TEV; with Protein phosphatase 2C 16
Sequence (O80920 1-207): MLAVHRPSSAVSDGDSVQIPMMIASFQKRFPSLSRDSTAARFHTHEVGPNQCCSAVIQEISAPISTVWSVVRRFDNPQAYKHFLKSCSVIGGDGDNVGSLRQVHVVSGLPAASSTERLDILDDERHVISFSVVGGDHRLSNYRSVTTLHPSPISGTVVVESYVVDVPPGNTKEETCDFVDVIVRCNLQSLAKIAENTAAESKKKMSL
Sequence (Q9CAJ0 169-511 partner): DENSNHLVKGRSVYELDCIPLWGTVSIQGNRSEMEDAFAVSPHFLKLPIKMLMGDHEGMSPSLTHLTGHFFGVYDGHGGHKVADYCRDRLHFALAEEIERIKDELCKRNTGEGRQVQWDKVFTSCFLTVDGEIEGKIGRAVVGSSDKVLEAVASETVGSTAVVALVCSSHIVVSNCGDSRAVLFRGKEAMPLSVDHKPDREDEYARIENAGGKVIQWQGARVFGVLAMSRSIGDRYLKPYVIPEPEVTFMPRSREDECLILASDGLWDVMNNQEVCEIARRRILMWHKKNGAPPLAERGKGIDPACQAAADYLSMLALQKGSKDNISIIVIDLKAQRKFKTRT
assay comment: HAB1 phosphatase inhibition assay (phosphopeptide, molybdate)
parameter measured: pIC50
pIC50 here is simply -log10 of the concentration when that concentration is written in mol/L.

In: Answer with reported pIC50 of CC1=CC(=O)CC(C)(C)[C@]1(O)/C=C/C(C)=C\C(=O)O [(−)-ABA]
Out: 6.32
